Target: BRD4 protein (Homo sapiens (Human))
Assay: BRD4 protein degradation inducing action in cancer cells (immunofluorescence, Operetta)
Type: cell-based
Details: LNCaP cells, 6 hr treatment, fluorescence intensity
property_label: DC50 (nM)

Cc1ncsc1-c1ccc([C@H](C)NC(=O)[C@@H]2C[C@@H](O)CN2C(=O)[C@@H](NC(=O)c2cc(F)c(-c3ccc(C4=N[C@@H](C)c5nnc(C)n5-c5sc(C)c(C)c54)cc3)cc2Cl)C(C)(C)C)cc1 : 0.51
COC(=O)C[C@@H]1N=C(c2ccc(-c3ccc4oc(C(=O)N[C@H](C(=O)N5C[C@H](O)C[C@H]5C(=O)NCc5ccc(-c6scnc6C)cc5)C(C)(C)C)nc4c3)cc2)c2c(sc(C)c2C)-n2c(C)nnc21 : 0.16

[1] COC(=O)C[C@@H]1N=C(c2ccc(-c3ccc(C(=O)N[C@H](C(=O)N4C[C@H](O)C[C@H]4C(=O)N[C@@H](C)c4ccc(-c5scnc5C)cc4)C(C)(C)C)c(C)c3)cc2)c2c(sc(C)c2C)-n2c(C)nnc21
[2] COC(=O)C[C@@H]1N=C(c2ccc(-c3ccc(C(=O)N[C@H](C(=O)N4C[C@H](O)C[C@H]4C(=O)N[C@@H](C)c4ccc(-c5scnc5C)cc4)C(C)(C)C)c(F)c3F)cc2)c2c(sc(C)c2C)-n2c(C)nnc21
Task item: Just tell me: smaller DC50 value, 1 or 2 ? Give the label of your selection.
Reply: 2
(2: 0.44 nM, 1: 0.93 nM)

Origin of the recorded values: patent US11542273B2
